These data points were gathered from ChEMBL document CHEMBL1201862.

test system: T47D; assay: NCI tumour cell line growth inhibition, 48 h
Active and inactive are the calls of the source. Rule as the data show it: active = GI50 up to about 1.1 µM and inactive = higher.
quantity-kind: GI50

Some molecules with known GI50 results, for comparison:
molecule	test-target	GI50
Cc1nc(N)nc2ccccc12	T47D	> 100 µM (inactive)
COc1cc(NC(C)=O)ccc1C(=O)NN1C(=O)C(Cl)C1c1ccco1 (stereo not drawn)	T47D	> 100 µM (inactive)

# evaluate next
The molecule "COc1ccc2c(-c3ccc(O)cc3)c(Oc3ccc(Cl)cc3)c(=O)oc2c1" showed GI50 equal to 5.26 µM (inactive)

---

system: NCI-H23; assay: NCI tumour cell line growth inhibition, 48 h
Activity calls are given as the source filed them. Rule as the data show it: active = GI50 up to about 1.1 µM and inactive = higher. Residues, ends and D or L forms follow the SMILES beside them. *: point of attachment. Boc = CC(C)(C)OC(=O)*
# valid calls are yes (active), no (inactive); nothing else

Observe how each entry below is paired with its result.
molecule	assigned-category
COC(=O)C1=C(O)c2cc3c(cc2[C@H](c2cc(OC)c(OC)c(OC)c2)C1)OCO3	no
O=C1C2C(C(=O)N1c1ccccc1)C1([N+](=O)[O-])C=C3c4ccccc4N(C(=O)c4ccccc4)C32C2C(=O)N(c3ccccc3)C(=O)C21 (configuration not stated)	no
C/C(=N\NC(=O)N/N=C(\C)c1ccccn1)c1ccccn1	yes
CC(=O)c1c2c(cc3c1CC1(Cc4cc5c(cc4C1=O)CCC5)C3)CCC2 (configuration not stated)	no
COc1ccc(/C=C2/SC(c3ccccc3)N(NC(=O)CCCCCCCCC(=O)NN3C(=O)/C(=C\c4ccc(OC)c(OC)c4)SC3c3ccccc3)C2=O)cc1OC (configuration not stated)	no
C=C1C(=O)O[C@H]2[C@H]3O[C@@H](C[C@@H]12)[C@](C)(O)CCCC(C)=CCC[C@H]3C	no

Tell me the recorded outcome of this test for "S=C(N/N=C/c1ccccn1)N1CCCCCC1" .
yes

Which result was noted for this molecule in the test: O=C(CC1(O)C(=O)Nc2c(Cl)cc(Cl)cc21)c1ccco1 (configuration not stated)
no

Hi, do you know how CC(NC(=O)C(NC(=O)OC(C)(C)C)C(C)C)C(=O)N1CCCC1C(=O)NCC(=O)NC(C(=O)NCC(=O)O)C(C)C (configuration not stated) (Boc-VAPGVG-OH; configuration not given here) came out in this test?
no

So what was the verdict on CC1(c2ccc(Cl)cc2)c2ccccc2C(=O)N1CCCN1C(=O)c2ccccc2C1=O (configuration not stated) in this test?
no

Each molecule tested received a call. Report the one for COc1cc(NC(C)=O)ccc1C(=O)NN1C(=O)C(Cl)C1c1ccco1 (configuration not stated) .
no

---

test system: SF-268; assay: NCI tumour cell line growth inhibition, 48 h
Active and inactive are the calls of the source. No stated cut-off is given here; in the data, active = GI50 up to about 1.1 µM and inactive = higher.
Tick one outcome: active, inactive

Some solved cases for reference:
compound	assigned-category
O=C1/C(=C/c2ccc(Cl)cc2)Oc2cc(O)ccc21 [6-HYDROXY-4'-CHLORO AURONE]	inactive
O=C1NC2(CN3CCC2CC3)C(=O)N1CN(Cc1ccccc1)c1ccccc1 (configuration not stated)	inactive
O=c1sc(Nc2ccc3ccccc3c2Cl)nc2ccccc12	inactive
COc1cc(CC2CC(c3ccc4c(c3)OCO4)OC2=O)cc(OC)c1OC (configuration not stated)	inactive

Fill in: this test's call for "O=C1c2cccc3cccc(c23)C(=O)N1O" is ___
inactive

For COc1cc2c(c(OC)c1OC)-c1ccc(OC)c(=O)cc1C(NC(=O)COc1ccccc1)CC2 (configuration not stated) , which call appears in the assay record?
active

So what was the verdict on S=c1c2nc[nH]c2ncn1CCSC1=NC=NC2=NC=NC21 (configuration not stated) in this test?
inactive

In this assay, the call recorded for [O-][S+](CCCl)c1c2ccccc2nc2ccccc12 (configuration not stated) was what?
inactive

So what was the verdict on CCC1OC(=O)CC(O)C(C)C(OC2OC(C)C(O)C(N(C)C)C2O)C(CC=O)CC(C)C(=O)/C=C/C2(C)OC2C1C (configuration not stated) in this test?
inactive

Hi team, can someone confirm the assay call for FC(F)(F)c1ccc2c(c1)nc(Cc1ccc(Cl)c(Cl)c1)n2CC1CCCN2CCCCC12 (configuration not stated) ?
inactive

Dear colleague, could you share the recorded outcome for O=C1C2C(C(=O)N1c1ccccc1)C1([N+](=O)[O-])C=C3c4ccccc4N(C(=O)c4ccccc4)C32C2C(=O)N(c3ccccc3)C(=O)C21 (configuration not stated) when you have a moment?
inactive

Recorded test call requested for CC1(C)OC[C@@H]([C@H](O)C2C=CC(=O)S2)O1 (some centres not stated)
inactive

---

Each entry below carries its reported GI50.
tested on: SNB-75; experiment: NCI tumour cell line growth inhibition, 48 h
The source made the active and inactive calls. No stated cut-off is given here; in the data, active = GI50 up to about 1.1 µM and inactive = higher.

molecule	GI50
CCC1OC(=O)CC(O)C(C)C(OC2OC(C)C(O)C(N(C)C)C2O)C(CC=O)CC(C)C(=O)/C=C/C2(C)OC2C1C (stereo unspecified)	23.5 µM (inactive)

Data point: "Cc1c(NC(=O)Nc2c(Cl)cccc2Cl)c(=O)n(-c2ccccc2)n1C" ; GI50 = > 100 µM (inactive)

// GI50 lookup, molecule = "COc1cc(C2C(C(=O)Nc3ccccc3C)=C(C)NC(C)=C2C(=O)Nc2ccccc2C)ccc1O" , result: 56.6 µM (inactive)

Lab book: GI50 of "COC(=O)[C@]1(C)CCCn2c(=O)n(-c3ccccc3)c(=O)n21" noted as > 100 µM (inactive)

Consider CC(C(=O)O)c1ccc(-c2ccccc2)c(F)c1 (stereo unspecified) . Its measured GI50 is > 100 µM (inactive)

What the record says about "CC(=O)NNc1nc(C)c(C(=O)NNC(=O)C(=O)Nc2ccc(C)c(C)c2)s1" : GI50 is > 100 µM (inactive)

Measured GI50, Cc1ccc(S(=O)(=O)N/N=C(/c2nc3ccc([N+](=O)[O-])cc3nc2O)C(O)c2ccc(C(O)/C(=N\NS(=O)(=O)c3ccc(C)cc3)c3nc4ccc([N+](=O)[O-])cc4nc3O)cc2)cc1 (stereo unspecified) : > 100 µM (inactive)

GI50 reading for "O=C(CC1=NCCN1)c1ccccc1" : > 735 µM (inactive)

Record "COc1ccc(-c2nc(-c3cnccn3)n(Cc3ccccc3)n2)cc1" . Reported GI50: 47.9 µM (inactive)

The value of GI50 measured for the molecule CC1CCCC(C(O)CC2CC(=O)N(c3ccccc3)C(=O)C2)C1=O (stereo unspecified) turned out to be > 100 µM (inactive)

Field GI50 (entry "O=C1CCCCC/C=C2/CC[C@H](Sc3ccccc3)[C@@H]12" ) reads 36.8 µM (inactive)

---

tested on: SN12C; assay: NCI tumour cell line growth inhibition, 48 h
The source made the active and inactive calls. Cut-off read from the data, not from the text of the source: active = GI50 up to about 1.1 µM and inactive = higher.
quantity-kind: GI50

The following compounds have reported results that may help.
compound	GI50
CC12CCC([C@H](C(O)C3CCCCC3)C1=O)C2(C)C (stereo partly drawn)	> 100 µM (inactive)
FC(F)(F)c1ccc2c(c1)nc(Cc1ccc(Cl)c(Cl)c1)n2CC1CCCN2CCCCC12 (stereo not drawn)	20.3 µM (inactive)

Value sought: GI50, system SN12C, item "CC(=O)c1cc2sc3ccccc3c2[nH]1" . Result: > 100 µM (inactive)

---

test system: RPMI-8226; assay: NCI tumour cell line growth inhibition, 48 h
Active and inactive are the calls of the source. Cut-off read from the data, not from the text of the source: active = GI50 up to about 1.1 µM and inactive = higher.
quantity-kind: GI50

molecule	quantity-kind	data-value
Oc1c(C2=NNC(c3ccc(Cl)cc3Cl)C2)ccc2ccccc12 (centres undefined)	GI50	32 µM (inactive)

The reported RPMI-8226 GI50 of Fc1cccc(C2ON=C(c3ccccc3)N2C23CC4CC(CC(C4)C2)C3)c1 (centres undefined) is 8.77 µM (inactive)

Entry "COc1cc(/C=C/C(=O)O)ccc1C(=O)OCc1ccccc1" ; assay system RPMI-8226; GI50 recorded at > 100 µM (inactive)

Value sought: GI50, system RPMI-8226, item CC1(C)C(=O)C=CC2(C)C1CC(O)C1(C)C2CCC2(C)C(c3ccoc3)OC(=O)C3OC321 (centres undefined) . Result: 18.5 µM (inactive)

Reported RPMI-8226 GI50 for item "CC1=NN(C(=O)c2ccccc2O)C(=O)/C1=C/c1ccc(O)cc1" was 0.312 µM (active)

Case "CS(=O)(=O)N/N=C/CN1C(=O)c2ccccc2C1=O" , RPMI-8226, GI50 recorded as > 100 µM (inactive)

Reported RPMI-8226 GI50 for item "CNC(=O)OCc1nc(SC(C)C)n(C)c1COC(=O)NC" was > 71.1 µM (inactive)

Measured on RPMI-8226, "CC(C)(C)c1ccc(O)c(CN(Cc2cc(C(C)(C)C)ccc2O)C2CCCCC2)c1" has a documented GI50 of 8.73 µM (inactive)

RPMI-8226 data for "IC[P+]1(c2ccccc2)CCCC1" ; its GI50: 29.8 µM (inactive)

Entry "COc1ccc2nc3cc(Cl)ccc3c(NCCNCCCNC(=O)c3cc(-c4ccccc4)nc4ccccc34)c2c1" , RPMI-8226 data, GI50 value: > 100 µM (inactive)

Value sought: GI50, system RPMI-8226, item COc1cc(C2c3cc4c(cc3[C@@H](Oc3ccc(F)cc3)C3COC(=O)[C@H]23)OCO4)cc(OC)c1O (some centres undefined) . Result: 0.461 µM (active)

Item "O=C(O)CCCCCCC[C@H]1S[C@H]1CCCCCCO" was tested on RPMI-8226; the reported GI50 is > 100 µM (inactive)

Bench note, RPMI-8226: entry CC(NC(=O)C(OC(=O)C(C)NC(=O)OC(C)(C)C)C(C)C)C(=O)OC(C(=O)O)C(C)C (centres undefined) , its GI50 = > 100 µM (inactive)

RPMI-8226 assay, molecule "C[C@H]1[C@H]2[C@H]3CC[C@@H]4[C@@]5(C)CC[C@H](O)C(C)(C)[C@@H]5CC[C@@]4(C)[C@]3(C)C[C@H](O)[C@@]2(C)C[C@H]2O[C@]21C" , recorded GI50 = 19.4 µM (inactive)

# GI50 measured on RPMI-8226 for item COC(CC1(/C=C/O[Si](C(C)C)(C(C)C)C(C)C)C(=O)N(COCC[Si](C)(C)C)c2ccccc21)OC (centres undefined) = > 100 µM (inactive)
